Assay: Solubility of revaprazan-containing solid dispersion in purified water
Format: physicochemical
Conditions: thermodynamic from solid, 25° C., solid dispersion containing 1 g revaprazan in 50 ml, stirred up to 6 hours, UV 270 nm
Procedure: Solubility of a revaprazan-containing solid dispersion was measured in purified water. […] The filtrate was diluted with methanol having such an amount that absorbance of the filtrate is in the range from 0.2 to 1.0. Then, absorbance of the diluted filtrate was measured at 270 nm using a UV spectrophotometer (Agilent 8453, Agilent technologies, USA). From the obtained absorbance value, concentrations of revaprazan were obtained using a standard curve. […]

| Compound | Units Of Measure | solubility |
| --- | --- | --- |
| Cc1nc(Nc2ccc(F)cc2)nc(N2CCc3ccccc3C2C)c1C (stereo not shown) | µg/mL | 173 |
